# reported dTm; entries follow
target: ~100 representative kinases (Homo sapiens); construct: Recombinant protein kinase domains with a concentration of 2 μM; assay: DSF 100 kinase selectivity screen; type: binding; conditions: protein NEK1; average of three replicates;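 also: compound tested at 20 µM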
measure.name: dTm

[
  {
    "compound": "Cn1cc(-c2c[nH]c3ncnc(N4CCOCC4)c23)cc1C#N",
    "study.system": "~100 representative kinases (Homo sapiens)",
    "result": "0.39 K"
  },
  {
    "compound": "COc1cc(NC(=O)C2(C(=O)Nc3cccc(-c4c[nH]c5ncnc(N6CCOCC6)c45)c3)CC2)ccc1F",
    "study.system": "~100 representative kinases (Homo sapiens)",
    "result": "-0.0539 K"
  },
  {
    "compound": "O=C(Nc1cccc(-c2c[nH]c3ncnc(N4CCOCC4)c23)c1)C1(C(=O)Nc2ccc(F)c(Br)c2F)CC1",
    "study.system": "~100 representative kinases (Homo sapiens)",
    "result": "-0.27 K"
  },
  {
    "compound": "O=C(Nc1cc(F)cc(Br)c1)C1(C(=O)Nc2cccc(-c3c[nH]c4ncnc(N5CCOCC5)c34)c2)CC1",
    "study.system": "~100 representative kinases (Homo sapiens)",
    "result": "-1.82 K"
  }
]

* * *

biological target: ~100 representative kinases (Homo sapiens, UniProt Q14680); construct: Recombinant protein kinase domains with a concentration of 2 μM; assay: DSF 100 kinase selectivity screen; format: binding; conditions: protein MELK; average of three replicates;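 also: compound tested at 20 µM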
Sequence (Q14680 whole entry, the tested form may be a part): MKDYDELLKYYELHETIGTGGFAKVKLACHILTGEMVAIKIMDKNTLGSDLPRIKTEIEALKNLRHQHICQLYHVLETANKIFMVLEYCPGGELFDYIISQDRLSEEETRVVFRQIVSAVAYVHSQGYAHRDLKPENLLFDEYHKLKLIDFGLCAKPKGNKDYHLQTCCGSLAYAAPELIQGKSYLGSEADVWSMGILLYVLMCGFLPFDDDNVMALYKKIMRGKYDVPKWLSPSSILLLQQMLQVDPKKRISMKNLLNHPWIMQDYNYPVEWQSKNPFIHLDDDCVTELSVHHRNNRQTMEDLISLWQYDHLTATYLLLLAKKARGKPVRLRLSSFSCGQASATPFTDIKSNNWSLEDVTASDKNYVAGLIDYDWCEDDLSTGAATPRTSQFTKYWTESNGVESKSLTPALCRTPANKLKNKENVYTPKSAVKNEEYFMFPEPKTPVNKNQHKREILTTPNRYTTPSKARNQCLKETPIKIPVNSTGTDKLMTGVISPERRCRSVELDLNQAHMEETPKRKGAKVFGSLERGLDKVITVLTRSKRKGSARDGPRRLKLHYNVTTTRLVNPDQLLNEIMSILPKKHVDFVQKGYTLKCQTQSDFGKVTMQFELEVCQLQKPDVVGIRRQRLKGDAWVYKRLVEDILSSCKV
With a cut-off of 6 K, any dTm strictly below it is called Y; any dTm meeting it or above is called N.

[
  {
    "molecule": "O=C(Nc1cccc(-c2c[nH]c3ncnc(N4CCOCC4)c23)c1)C1(C(=O)Nc2ccc(F)c(Br)c2)CC1 [Compound 19]",
    "group.label": "N"
  },
  {
    "molecule": "Cc1ccc(C(=O)Nc2ccc(CN3CCN(C)CC3)c(C(F)(F)F)c2)cc1C#Cc1cnc2[nH]ncc2c1 [GZD-824, reference compound]",
    "group.label": "Y"
  },
  {
    "molecule": "COc1cc(NC(=O)C2(C(=O)Nc3cccc(-c4c[nH]c5ncnc(N6CCOCC6)c45)c3)CC2)ccc1F [Compound 21]",
    "group.label": "N"
  },
  {
    "molecule": "COc1cc2c(Oc3ccc(NC(=O)C4(C(=O)Nc5ccc(F)cc5)CC4)cc3F)ccnc2cc1OCCCN1CCOCC1 [Foretinib, reference compound]",
    "group.label": "N"
  },
  {
    "molecule": "CC(C)(C)c1cccc(NC(=O)C2(C(=O)Nc3cccc(-c4c[nH]c5ncnc(N6CCOCC6)c45)c3)CC2)c1 [Compound 22]",
    "group.label": "N"
  },
  {
    "molecule": "O=C(Nc1cccc(-c2c[nH]c3ncnc(N4CCOCC4)c23)c1)C1(C(=O)Nc2ccc(F)c(Cl)c2)CC1 [Compound 18]",
    "group.label": "N"
  },
  {
    "molecule": "Cc1cc(NC(=O)C2(C(=O)Nc3cccc(-c4c[nH]c5ncnc(N6CCOCC6)c45)c3)CC2)ccc1F [Compound 20]",
    "group.label": "N"
  },
  {
    "molecule": "COc1cc(C(=O)N2CCOCC2)c(F)cc1Nc1nc(N(C)C)c2c(Cl)c[nH]c2n1 [Compound 36]",
    "group.label": "Y"
  },
  {
    "molecule": "C[C@@H]1CN(c2cc(-c3n[nH]c4ccc(OC5(C)CC5)cc34)ncn2)C[C@H](C)O1 [MLi2]",
    "group.label": "Y"
  },
  {
    "molecule": "O=C(Nc1ccccc1)C1(C(=O)Nc2cccc(-c3c[nH]c4ncnc(N5CCOCC5)c34)c2)CC1 [Compound 12]",
    "group.label": "N"
  },
  {
    "molecule": "CCNc1nc(Nc2cc(F)c(C(=O)N3CCOCC3)cc2OC)ncc1C(F)(F)F [GNE-7915]",
    "group.label": "Y"
  },
  {
    "molecule": "O=C(Nc1cccc(-c2c[nH]c3ncnc(N4CCOCC4)c23)c1)C1(C(=O)Nc2ccc(F)c(F)c2)CC1 [Compound 17]",
    "group.label": "N"
  },
  {
    "molecule": "COc1ccc(NC(=O)C2(C(=O)Nc3cccc(-c4c[nH]c5ncnc(N6CCOCC6)c45)c3)CC2)cc1 [Compound 16]",
    "group.label": "N"
  },
  {
    "molecule": "Cc1ccc(-n2nc(C(C)(C)C)cc2NC(=O)Nc2cccc(-c3c[nH]c4ncnc(N5CCOCC5)c34)c2)cc1 [Compound 29]",
    "group.label": "N"
  },
  {
    "molecule": "O=C(Nc1ccc(F)cc1)C1(C(=O)Nc2cccc(-c3c[nH]c4ncnc(N5CCOCC5)c34)c2)CC1 [Compound 2]",
    "group.label": "N"
  },
  {
    "molecule": "CCSc1nc(NC)c2c(-c3cccc(NC(=O)Nc4cc(C(C)(C)C)nn4-c4ccc(C)cc4)c3)c[nH]c2n1 [Compound 32]",
    "group.label": "Y"
  },
  {
    "molecule": "O=C(Nc1cc(F)cc(Br)c1)C1(C(=O)Nc2cccc(-c3c[nH]c4ncnc(N5CCOCC5)c34)c2)CC1 [Compound 27]",
    "group.label": "N"
  },
  {
    "molecule": "CC(=O)N1CCN(c2nc(Cl)nc3[nH]cc(-c4cccc(NC(=O)Nc5cc(C(C)(C)C)nn5-c5ccc(C)cc5)c4)c23)CC1 [Compound 31]",
    "group.label": "Y"
  }
]

* * *

molecular target: ~100 representative kinases (Homo sapiens); construct: Recombinant protein kinase domains with a concentration of 2 μM; test: DSF 100 kinase selectivity screen; type: binding; details: Protein CAMKK2; average of three replicates;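 also: compound tested at 20 µM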
Recorded dTm split into classes low interval (below 5 K), middle interval (5 K to below 10 K), high interval (10 K or more)

[
  {
    "molecule": "COc1cc2c(Oc3ccc(NC(=O)C4(C(=O)Nc5ccc(F)cc5)CC4)cc3F)ccnc2cc1OCCCN1CCOCC1 [Foretinib, reference compound]",
    "study.system": "~100 representative kinases (Homo sapiens)",
    "group.label": "high interval"
  },
  {
    "molecule": "Cc1cc(NC(=O)C2(C(=O)Nc3ccc(F)cc3)CC2)cc(-c2c[nH]c3ncnc(N4CCOCC4)c23)c1 [Compound 6]",
    "study.system": "~100 representative kinases (Homo sapiens)",
    "group.label": "low interval"
  },
  {
    "molecule": "COc1ccc(NC(=O)C2(C(=O)Nc3cccc(-c4c[nH]c5ncnc(N6CCOCC6)c45)c3)CC2)cc1 [Compound 16]",
    "study.system": "~100 representative kinases (Homo sapiens)",
    "group.label": "low interval"
  },
  {
    "molecule": "O=C(Nc1cccc(-c2c[nH]c3ncnc(N4CCOCC4)c23)c1)c1cccn(-c2ccc(F)cc2)c1=O [Compound 4]",
    "study.system": "~100 representative kinases (Homo sapiens)",
    "group.label": "middle interval"
  },
  {
    "molecule": "O=C(Nc1cccc(-c2c[nH]c3ncnc(N4CCOCC4)c23)c1)C1(C(=O)Nc2ccc(F)c(F)c2)CC1 [Compound 17]",
    "study.system": "~100 representative kinases (Homo sapiens)",
    "group.label": "middle interval"
  },
  {
    "molecule": "Cc1cc(NC(=O)C2(C(=O)Nc3cccc(-c4c[nH]c5ncnc(N6CCOCC6)c45)c3)CC2)ccc1F [Compound 20]",
    "study.system": "~100 representative kinases (Homo sapiens)",
    "group.label": "high interval"
  },
  {
    "molecule": "CN[C@@H]1C[C@H]2O[C@@](C)([C@@H]1OC)n1c3ccccc3c3c4c(c5c6ccccc6n2c5c31)C(=O)NC4 [Staurosporine]",
    "study.system": "~100 representative kinases (Homo sapiens)",
    "group.label": "high interval"
  },
  {
    "molecule": "CC(C)(C)c1cccc(NC(=O)C2(C(=O)Nc3cccc(-c4c[nH]c5ncnc(N6CCOCC6)c45)c3)CC2)c1 [Compound 22]",
    "study.system": "~100 representative kinases (Homo sapiens)",
    "group.label": "middle interval"
  },
  {
    "molecule": "O=C(Nc1ccc(F)cc1)C1(C(=O)Nc2cccc(-c3c[nH]c4ncnc(N5CCOCC5)c34)c2)CC1 [Compound 2]",
    "study.system": "~100 representative kinases (Homo sapiens)",
    "group.label": "middle interval"
  },
  {
    "molecule": "CCNc1nc(Nc2cc(F)c(C(=O)N3CCOCC3)cc2OC)ncc1C(F)(F)F [GNE-7915]",
    "study.system": "~100 representative kinases (Homo sapiens)",
    "group.label": "low interval"
  }
]
